Collected Percent Effect values appear next to each entry.
Species on record: Homo sapiens
Assay: To identify inhibition of the IFN signalling (Jak-Stat) pathway via expression of an eGFP reporter gene under the control of an IFN-stimulated response element (ISRE) containing MxA promoter.
Assay type: functional
Design: scale not given: direction of the effect not stated beside the values
Conditions: 30 µM
Kindly report the value followed by its unit.

In one line, give reported Percent Effect of the entry Cc1cnn(C2CCCN(C(=O)c3ccnc(N(C)C)c3)C2)c1 (stereo unspecified) . 19.4%

In one line, give reported Percent Effect of the entry CC1=N[C@@]2(CC[C@@H]3CN(S(=O)(=O)CC(C)C)C[C@@H]32)C(=O)N1CC(C)C . -9.78%

In one line, give reported Percent Effect of the entry CC(C)c1nc2c(n1C)CCN(Cc1nc(-c3ccsc3)no1)C2 . 1.59%

In one line, give reported Percent Effect of the entry CC(NC(=O)CSCC#N)c1cccc(NC(=O)c2ccccc2)c1 (stereo unspecified) . 12.6%

In one line, give reported Percent Effect of the entry CN(Cc1cccc(F)c1)C1CCN(CCc2ccccn2)CC1 . 20.8%

In one line, give reported Percent Effect of the entry O=C(Nc1cccc(Cl)c1)c1nn(C2CCS(=O)(=O)C2)c2c1CCCC2 (stereo unspecified) . -5.46%

In one line, give reported Percent Effect of the entry CNc1nc2c(c(C(=O)N3CCCC3)n1)CN(Cc1nccn1C)CC2 . 8.05%

In one line, give reported Percent Effect of the entry Cc1ccc(CNC(c2ccccc2)c2nccn2C)cc1C (stereo unspecified) . 30.7%

In one line, give reported Percent Effect of the entry Cc1ccc(-c2nnc(CN3CCc4cnc(C)nc4C3)o2)cc1 . 15.6%

In one line, give reported Percent Effect of the entry COc1ccc2c(c1)CCN(CCC(=O)NC1CCCCC1)CC2 . 14.6%

In one line, give reported Percent Effect of the entry Cc1cc(C(=O)N2CCC3(CCCN(CC4CC4)C3=O)C2)c(C)n1C (stereo unspecified) . 10.3%

====

Target: Chromo domain-containing protein 1 (Saccharomyces cerevisiae (strain ATCC 204508 / S288c) (Baker's yeast)) (UniProt P32657)
Sequence (P32657 whole entry, the tested form may be a part): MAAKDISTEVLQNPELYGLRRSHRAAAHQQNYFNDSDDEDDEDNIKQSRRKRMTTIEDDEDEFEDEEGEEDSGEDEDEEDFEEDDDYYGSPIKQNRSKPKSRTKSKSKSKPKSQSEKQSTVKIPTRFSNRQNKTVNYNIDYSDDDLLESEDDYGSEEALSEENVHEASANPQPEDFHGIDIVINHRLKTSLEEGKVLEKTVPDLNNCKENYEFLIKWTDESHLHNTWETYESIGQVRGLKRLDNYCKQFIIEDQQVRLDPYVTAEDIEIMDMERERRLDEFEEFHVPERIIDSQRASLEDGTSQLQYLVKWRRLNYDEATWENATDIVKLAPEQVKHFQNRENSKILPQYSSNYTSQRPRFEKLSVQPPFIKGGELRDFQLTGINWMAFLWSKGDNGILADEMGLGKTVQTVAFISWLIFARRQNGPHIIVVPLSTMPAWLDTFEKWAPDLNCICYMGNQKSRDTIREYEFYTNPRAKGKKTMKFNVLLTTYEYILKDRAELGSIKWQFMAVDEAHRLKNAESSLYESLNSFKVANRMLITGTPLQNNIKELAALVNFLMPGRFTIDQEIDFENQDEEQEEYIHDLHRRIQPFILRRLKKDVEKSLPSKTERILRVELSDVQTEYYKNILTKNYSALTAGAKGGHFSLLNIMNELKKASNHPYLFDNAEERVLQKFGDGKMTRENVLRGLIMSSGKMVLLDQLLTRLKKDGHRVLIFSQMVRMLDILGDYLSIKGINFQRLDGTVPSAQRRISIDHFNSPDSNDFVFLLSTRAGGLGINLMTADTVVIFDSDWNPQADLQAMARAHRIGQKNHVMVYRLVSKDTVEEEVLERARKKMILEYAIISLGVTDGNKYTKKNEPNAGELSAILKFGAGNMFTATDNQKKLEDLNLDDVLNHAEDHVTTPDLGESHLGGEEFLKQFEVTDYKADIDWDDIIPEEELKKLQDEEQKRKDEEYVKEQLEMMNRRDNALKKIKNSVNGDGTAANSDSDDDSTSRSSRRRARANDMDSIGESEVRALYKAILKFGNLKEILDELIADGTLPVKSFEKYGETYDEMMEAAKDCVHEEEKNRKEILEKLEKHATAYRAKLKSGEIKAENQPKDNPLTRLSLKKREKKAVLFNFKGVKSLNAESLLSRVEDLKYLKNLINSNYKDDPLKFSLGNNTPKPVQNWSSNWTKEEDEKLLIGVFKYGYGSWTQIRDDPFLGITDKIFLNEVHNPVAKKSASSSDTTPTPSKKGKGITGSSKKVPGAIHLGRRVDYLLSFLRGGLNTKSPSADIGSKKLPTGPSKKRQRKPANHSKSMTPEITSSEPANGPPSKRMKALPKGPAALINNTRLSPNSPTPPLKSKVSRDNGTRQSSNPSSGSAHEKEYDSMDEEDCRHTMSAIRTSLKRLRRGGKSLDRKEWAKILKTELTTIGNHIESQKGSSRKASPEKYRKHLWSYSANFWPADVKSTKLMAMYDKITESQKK
Experiment: ScCHD-1 Enzyme Inhibition Assay; also: in the data most compounds retested in dose-response had high values
Assay type: functional
Design: scale not given: direction of the effect not stated beside the values
Details: 30 µM
Collected Percent Effect values appear next to each entry.
Could you give me the number in %? Just the number is fine.

Please review the entries below; each comes with its answer.
>>> observedmeasurement("COC(=O)c1cccn1C1CCN(C(=O)c2cn[nH]c2C)CC1")
-9.12
>>> observedmeasurement("Cc1oc(C(=O)O)cc1S(=O)(=O)Nc1c(F)cccc1-n1cccn1")
-3.81
>>> observedmeasurement("Nc1cc2c(nn1)CCN(C(=O)c1cccc3c1OCCO3)C2")
-10.5
>>> observedmeasurement("CC(C)CCN1CCC2(CC1)CN(C(=O)c1cnccn1)CCO2")
-3.24
>>> observedmeasurement("CN1CC(C(=O)NC(C)(C)C)CC1=O (stereo unspecified)")
6.01
>>> observedmeasurement("Cc1ccccc1[C@@H]1CN(C(=O)c2ccc3[nH]nnc3c2)C[C@H]1C(=O)O")
2.93

In one line, give reported Percent Effect of the entry Cc1nc2cc(C3CCN(Cc4cccc(F)c4F)C3)nn2c(O)c1C (stereo unspecified) . -14.4

In one line, give reported Percent Effect of the entry O=C(c1cc(Cl)c2c(c1)OCO2)N1CCN(c2ccccn2)CC1 . -12.5

In one line, give reported Percent Effect of the entry CN(C)C(=O)CN1C[C@@H]2CC[C@H](C1)N(C(=O)CCn1cncn1)C2 . -3.62

In one line, give reported Percent Effect of the entry COc1ccc(NCc2nc(=O)n(CCC(C)C)[nH]2)cc1 . -2.13

In one line, give reported Percent Effect of the entry CC(NC(=O)NCCCNS(C)(=O)=O)c1ccncc1 (stereo unspecified) . -4.71
